Quick reference: inhibition at 1 µM of the listed items.
target: human recombinant adrenergic α1D receptor (Homo sapiens); construct: expressed in transfected cells; host or cells: HEK-293 cells; experiment: Adrenergic alpha1D radioligand binding ([3H]Prozosin); settings: compound at 1 μM; read-out: Adrenergic (1 μM) α1D, percent inhibition of specific binding

# example entries with known answers
Cc1ccc2c(c1)c1c(n2CC(O)c2ccc(F)cc2)CCN(C)CC1 (stereo not drawn) [Compound No. 52]    91%
C/C(=C/n1c2c(c3cc(C)ccc31)CCN(C)CC2)c1ccc(Cl)cc1Cl [Compound No. 174]    89%
Cc1ccc(CCn2c3c(c4cc(Cl)ccc42)CCN(C)CC3)cc1 [Compound No. 46]    88%
C/C(=C\n1c2c(c3cc(C)ccc31)CCN(C)CC2)c1ccc(Cl)cc1Cl [Compound No. 238]    30%

Problem: Would you kindly share the measured inhibition at 1 µM for Cc1cncc(CCn2c3c(c4cc(Cl)ccc42)CCN(C)CC3)c1 [Compound No. 3] ?
Result: 89%

Problem: Subsequent entry: COc1ccc(C(O)Cn2c3c(c4cc(Cl)ccc42)CCN(C)CC3)cc1F (stereo not drawn) [Compound No. 67]
Result: 90%

Problem: Subsequent entry: CN1CCc2c(n(CCc3ccc(Cl)cc3)c3ccc(Cl)cc23)CC1 [Compound No. 30]
Result: 89%

Problem: Subsequent entry: CN1CCc2c(n(CC(O)c3ccc(F)c(F)c3)c3ccc(Cl)cc23)CC1 (stereo not drawn) [Compound No. 58]
Result: 88%

Problem: Subsequent entry: CN1CCc2c(n(CCc3ccc(C(F)(F)F)nc3)c3ccc(Cl)cc23)CC1 [Compound No. 1]
Result: 90%

====

target: human recombinant serotonin (5-Hydroxytryptamine) 5-HT6 receptor (Homo sapiens, UniProt P50406); construct: expressed in transfected cells; host or cells: human HeLa cells; assay: Serotonin 5-HT6 radioligand binding ([3H]LSD); conditions: compound at 1 μM; read-out: Serotonin (1 μM) 5-HT6, percent inhibition of specific binding
Sequence (P50406 whole entry): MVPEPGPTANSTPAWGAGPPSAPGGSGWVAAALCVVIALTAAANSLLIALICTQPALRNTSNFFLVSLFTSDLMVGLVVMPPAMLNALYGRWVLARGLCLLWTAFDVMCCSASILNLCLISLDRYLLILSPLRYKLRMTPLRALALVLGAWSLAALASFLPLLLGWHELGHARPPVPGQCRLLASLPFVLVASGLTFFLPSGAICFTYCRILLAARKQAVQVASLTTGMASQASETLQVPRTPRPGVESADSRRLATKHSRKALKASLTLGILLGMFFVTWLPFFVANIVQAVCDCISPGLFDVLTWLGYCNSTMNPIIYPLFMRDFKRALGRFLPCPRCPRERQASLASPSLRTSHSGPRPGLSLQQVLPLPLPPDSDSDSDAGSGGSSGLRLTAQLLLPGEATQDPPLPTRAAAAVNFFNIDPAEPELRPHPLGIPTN
Param threshold (60%) applies to inhibition at 1 µM; output YES when value >= threshold, NO when value < threshold.

Use the examples below as a reference point.
CN1CCc2c(n(C#Cc3ccc(Cl)cc3)c3ccc(Cl)cc23)CC1    YES
COc1ccc(/C=C/n2c3c(c4cc(Cl)ccc42)CCN(C)CC3)cc1OC    NO

Problem: Can COc1ccc(C(O)Cn2c3c(c4cc(C)ccc42)CCN(C)CC3)c(F)c1 (stereo not drawn) be said to have inhibition at 1 µM at or above 60%?
Result: YES

Problem: Subsequent entry: CN1CCc2c(n(CC(O)c3ccc(F)cc3)c3ccc(Cl)cc23)CC1 (stereo not drawn)
Result: YES

Problem: Subsequent entry: CN1CCc2c(n(CC(=O)N3CCNCC3)c3ccc(Cl)cc23)CC1
Result: NO

====

target: human recombinant serotonin (5-Hydroxytryptamine) 5-HT2C receptor (Homo sapiens, UniProt P28335); construct: expressed in transfected cells; host or cells: CHO-K1 cells; experiment: Serotonin 5-HT2C radioligand binding ([3H]Mesulergine); details: compound at 1 μM; read-out: Serotonin (1 μM) 5-HT2C, percent inhibition of specific binding
Sequence (P28335 33-458): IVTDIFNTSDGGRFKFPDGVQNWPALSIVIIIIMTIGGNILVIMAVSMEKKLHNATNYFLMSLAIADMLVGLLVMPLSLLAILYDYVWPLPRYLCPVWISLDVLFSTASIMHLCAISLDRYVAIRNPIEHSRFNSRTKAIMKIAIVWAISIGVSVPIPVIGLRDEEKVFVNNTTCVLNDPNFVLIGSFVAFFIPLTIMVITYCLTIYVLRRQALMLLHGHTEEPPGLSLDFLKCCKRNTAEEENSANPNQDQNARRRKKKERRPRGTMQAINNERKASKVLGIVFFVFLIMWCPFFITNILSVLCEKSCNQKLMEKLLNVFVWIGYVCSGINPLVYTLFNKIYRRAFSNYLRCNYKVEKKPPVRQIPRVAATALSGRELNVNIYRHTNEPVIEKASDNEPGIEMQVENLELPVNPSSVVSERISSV
Quick reference: inhibition at 1 µM of the listed items.
Write the value in % as a bare number.

Problem: Would you kindly share the measured inhibition at 1 µM for CN1CCc2c(n(CC(O)c3ccc(Cl)cc3)c3ccc(Cl)cc23)CC1 (centres unmarked) [Compound No. 16] ?
Result: 92

====

Molecular target: human recombinant histamine H1 receptor (Homo sapiens)
Construct: expressed in transfected cells; host or cells: CHO cells
Sequence (P35367 whole entry): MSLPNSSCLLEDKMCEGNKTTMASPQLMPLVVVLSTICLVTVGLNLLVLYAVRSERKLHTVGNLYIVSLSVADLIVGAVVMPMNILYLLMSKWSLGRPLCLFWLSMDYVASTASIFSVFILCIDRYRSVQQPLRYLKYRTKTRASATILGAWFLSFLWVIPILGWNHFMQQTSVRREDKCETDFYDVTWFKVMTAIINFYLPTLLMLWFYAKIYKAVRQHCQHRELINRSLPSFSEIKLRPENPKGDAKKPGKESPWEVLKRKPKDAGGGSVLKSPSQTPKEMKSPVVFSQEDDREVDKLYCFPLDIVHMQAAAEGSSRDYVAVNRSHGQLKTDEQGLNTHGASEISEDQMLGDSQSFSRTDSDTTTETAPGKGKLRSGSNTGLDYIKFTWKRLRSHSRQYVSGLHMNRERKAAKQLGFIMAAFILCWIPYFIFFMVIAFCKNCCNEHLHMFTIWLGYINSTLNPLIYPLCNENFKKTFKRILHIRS
Assay: Histamine H1 radioligand binding ([3H]Pyrilamine)
Settings: compound at 1 μM; read-out: Histamine Binding (1 μM) H1, percent inhibition of specific binding
Method: To evaluate in radioligand binding assays the activity of compounds of the invention, human recombinant histamine H1 receptor expressed in Chinese hamster ovary (CHO) cells (De Backer, M. D. et al., Biochem. Biophys. Res. Comm. 197(3):1601, 1993) in a modified Tris-HCl buffer (50 mM Tris-HCl, pH 7.4, 2 mM MgCl2, 100 mM NaCl, 250 mM Sucrose) was used. […] Receptor proteins were filtered and washed, the filters were then counted to determine [^3H]Pyrilamine specifically bound. […]
ASSAY_ENDPOINT: inhibition at 1 µM (%)
Write the value in % as a bare number.

# example entries with known answers
C/C(=C/n1c2c(c3cc(Cl)ccc31)CCN(C)CC2)c1ccccc1Cl    102
CN1CCc2c(n(CC(=O)Nc3ccc(F)cc3)c3ccc(Cl)cc23)CC1    13
C/C(=C/n1c2c(c3cc(C)ccc31)CCN(C)CC2)c1ccccc1F    96
CN1CCc2c(n(CC(C)(O)c3ccc(Cl)cc3)c3ccc(Cl)cc23)CC1 (stereo not drawn)    99
CN1CCc2c(n(CC(O)c3ccncc3)c3ccc(Cl)cc23)CC1 (stereo not drawn)    103

Next item in the queue.
Problem: Please state recorded inhibition at 1 µM (tested on human recombinant histamine H1 receptor (Homo sapiens)) of C/C(=C/n1c2c(c3cc(C)ccc31)CCN(C)CC2)c1cccc(F)c1
Result: 96

====

Molecular target: human recombinant serotonin (5-Hydroxytryptamine) 5-HT2A receptor (Homo sapiens)
Construct: expressed in transfected cells; host or cells: CHO-K1 cells
Sequence (P28223 whole entry): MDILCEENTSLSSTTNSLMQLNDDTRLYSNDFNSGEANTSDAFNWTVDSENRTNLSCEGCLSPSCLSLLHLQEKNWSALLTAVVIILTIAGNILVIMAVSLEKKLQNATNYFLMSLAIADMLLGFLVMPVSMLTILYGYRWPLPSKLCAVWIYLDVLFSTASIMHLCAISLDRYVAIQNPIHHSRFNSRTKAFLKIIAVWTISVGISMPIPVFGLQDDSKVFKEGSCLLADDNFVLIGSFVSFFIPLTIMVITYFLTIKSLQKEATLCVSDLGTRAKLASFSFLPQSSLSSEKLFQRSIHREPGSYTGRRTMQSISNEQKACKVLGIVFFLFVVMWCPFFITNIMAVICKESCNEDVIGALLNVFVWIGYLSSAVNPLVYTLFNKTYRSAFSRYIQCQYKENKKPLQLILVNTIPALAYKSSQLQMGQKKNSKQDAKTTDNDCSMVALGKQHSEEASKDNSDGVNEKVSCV
Experiment: Serotonin 5-HT2A radioligand binding ([3H]Ketanserin)
Conditions: compound at 1 μM; read-out: Serotonin (1 μM) 5-HT2A, percent inhibition of specific binding
Experimental: To evaluate in radioligand binding assays the activity of compounds of the invention, human recombinant serotonin (5-Hydroxytryptamine) 5-HT2A receptor expressed in Chinese hamster ovary (CHO-K1) cells (Bonhaus, D. W. et al. Br. J. Pharmacol. 115:622, 1995; Saucier, C. and Albert, P. R., J. Neurochem. 68:1998, 1997) in a 50 mM Tris-HCl buffer, pH 7.4, was used. […] Receptor proteins were filtered and washed, the filters were then counted to determine [^3H]Ketanserin specifically bound. […]
ASSAY_ENDPOINT: inhibition at 1 µM

# example entries with known answers
Cc1ccc2c(c1)c1c(n2CC(O)c2ccc(C)nc2)CCN(C)CC1 (stereo not drawn)    67%
Cc1ccc2c(c1)c1c(n2CC(C)(O)c2ccc(Cl)cc2)CCN(C)CC1 (stereo not drawn)    101%
CN1CCc2c(n(CC(O)c3ccncc3)c3ccc(Cl)cc23)CC1 (stereo not drawn)    95%
Cc1ccc2c(c1)c1c(n2CC(O)c2ccc(F)cc2F)CCN(C)CC1 (stereo not drawn)    93%
Cc1ccc2c(c1)c1c(n2CC(O)c2ccc(F)cc2)CCN(C)CC1 (stereo not drawn)    97%

Next item in the queue.
Problem: Would you kindly share the measured inhibition at 1 µM for Cc1ccc2c(c1)c1c(n2CC(=O)N2CCC(C)CC2)CCN(C)CC1 ?
Result: 38%

====

target: human recombinant histamine H1 receptor (Homo sapiens); construct: expressed in transfected cells; host or cells: CHO cells; assay: Histamine H1 radioligand binding ([3H]Pyrilamine); settings: compound at 1 μM; read-out: Histamine Binding (1 μM) H1, percent inhibition of specific binding
ASSAY_ENDPOINT: inhibition at 1 µM (%)
Write the value in % as a bare number.

Cc1ccc2c(c1)c1c(n2CCc2ccncc2)CCN(C)CC1    103

Problem: Would you kindly share the measured inhibition at 1 µM for Cc1ccc2c(c1)c1c(n2CC(O)c2ccncc2)CCN(C)CC1 (stereo not drawn) ?
Result: 100

Problem: Subsequent entry: CN1CCc2c(n(/C=C/c3ccc(F)cc3)c3ccc(Cl)cc23)CC1
Result: 99

Problem: Subsequent entry: CN1CCc2c(n(CCc3ccccc3)c3ccc(Cl)cc23)CC1
Result: 105

Problem: Subsequent entry: CN1CCc2c(n(CCc3ccccc3F)c3ccccc23)CC1
Result: 96

Problem: Subsequent entry: C/C(=C/n1c2c(c3cc(C)ccc31)CCN(C)CC2)c1ccc(Cl)cc1Cl
Result: 98

Problem: Subsequent entry: Cc1ccc2c(c1)c1c(n2CC(=O)N2CCCC2)CCN(C)CC1
Result: 13

Problem: Subsequent entry: Cc1ccc2c(c1)c1c(n2CC(=O)N(C)C2CCCCC2)CCN(C)CC1
Result: 95

====

biological target: human recombinant adrenergic α1D receptor (Homo sapiens, UniProt P25100); construct: expressed in transfected cells; host or cells: HEK-293 cells; assay: Adrenergic alpha1D radioligand binding ([3H]Prozosin); settings: compound at 1 μM; read-out: Adrenergic (1 μM) α1D, percent inhibition of specific binding
Sequence (P25100 whole entry): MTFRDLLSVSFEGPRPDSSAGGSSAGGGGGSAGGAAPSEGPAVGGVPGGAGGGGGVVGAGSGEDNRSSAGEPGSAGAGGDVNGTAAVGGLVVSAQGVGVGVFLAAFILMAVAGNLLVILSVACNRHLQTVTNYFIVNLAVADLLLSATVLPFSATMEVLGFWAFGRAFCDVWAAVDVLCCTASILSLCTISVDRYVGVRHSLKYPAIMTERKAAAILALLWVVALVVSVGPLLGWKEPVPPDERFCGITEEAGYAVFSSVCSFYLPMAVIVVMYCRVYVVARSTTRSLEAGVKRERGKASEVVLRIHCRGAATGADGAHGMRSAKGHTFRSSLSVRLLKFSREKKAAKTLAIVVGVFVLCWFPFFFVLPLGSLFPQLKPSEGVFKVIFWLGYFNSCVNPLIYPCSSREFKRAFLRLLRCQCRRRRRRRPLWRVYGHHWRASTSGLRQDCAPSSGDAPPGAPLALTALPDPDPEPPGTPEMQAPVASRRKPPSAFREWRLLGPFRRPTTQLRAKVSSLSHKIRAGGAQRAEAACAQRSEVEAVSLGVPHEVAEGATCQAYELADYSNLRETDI
ASSAY_ENDPOINT: inhibition at 1 µM
Answer shape: numeric part, then the unit.

C/C(=C\n1c2c(c3cc(C)ccc31)CCN(C)CC2)c1ccc(F)cc1 [Compound No. 34]    100%
Cc1ccc2c(c1)c1c(n2CC(O)c2ccccc2F)CCN(C)CC1 (stereo not drawn) [Compound No. 41]    75%

Next item in the queue.
Problem: Please state recorded inhibition at 1 µM (tested on human recombinant adrenergic α1D receptor (Homo sapiens, UniProt P25100)) of CN1CCc2c(n(CC(O)c3ccc(Cl)cc3)c3ccc(Cl)cc23)CC1 (stereo not drawn) [Compound No. 16]
Result: 85%
